tested on: L1210 leukemia ip in BDF1 mice, survival T/C; experiment: NCI In Vivo Anticancer Drug Screen. Data for tumor model L1210 Leukemia (intraperitoneal) in B6D2F1 (BDF1) mice; conditions: endpoint: mean survival time; dose: 100.0 mg/kg/injection; schedule: Q01DX009 (ip); vehicle: saline with Tween-80; higher = longer survival
Toxic doses and inconclusive results are not listed.
Catalogue of compounds with associated T/C

Example results:
{"compound": "CCOC(=O)C(=CNc1ccccn1)C(=O)OCC", "readout": "T/C", "meas_value": "100 % of control"}
{"compound": "Oc1c(Br)cc(Br)cc1C=NCC1CCC(CN=Cc2cc(Br)cc(Br)c2O)CC1 (stereo not given)", "readout": "T/C", "meas_value": "92 % of control"}
{"compound": "OC(C#Cc1ccccc1)c1ccccc1 (stereo not given)", "readout": "T/C", "meas_value": "100 % of control"}
{"compound": "COc1ccc(C(=O)C/C(=N\\N(C(=O)c2ccc(OC)cc2)c2ccccc2)c2ccc(OC)cc2)cc1", "readout": "T/C", "meas_value": "93 % of control"}

Please look at the following compound next.
Known value: L1210 leukemia ip in BDF1 mice, survival T/C T/C of the compound CCCCNC(=O)Oc1cccc(NC(=O)OC)c1 equals 96 % of control

---

Tested on: L1210 leukemia ip in BDF1 mice, survival T/C
Assay: NCI In Vivo Anticancer Drug Screen. Data for tumor model L1210 Leukemia (intraperitoneal) in B6D2F1 (BDF1) mice
Conditions: endpoint: mean survival time; dose: 100.0 mg/kg/injection; schedule: Q01DX001 (ip); vehicle: carboxymethylcellulose (CMC); higher = longer survival
Description: The antitumor activity of compounds was measured in mice bearing transplantable tumors. Survival or tumor size were measured and the results are expressed as the measurement made in the treated group (T) divided by the measurement made in the vehicle treated control group (C). The tumor model used in this assay is L1210 Leukemia (intraperitoneal) in B6D2F1 (BDF1) mice
Inconclusive results and toxic doses are left out.
Recorded T/C, one value per entry.

{"compound": "O=C1c2cc(N=C(NO)C(F)(F)F)ccc2-c2ccc([N+](=O)[O-])cc21", "T/C": "90 % of control"}
{"compound": "COc1cc(NC(=O)CN(CCCl)CCCl)cc(OC)c1OC", "T/C": "119 % of control"}
{"compound": "COc1ccc(C(=O)OCCN(CCOC(=O)c2ccc(OC)cc2)c2c[nH]c(=O)[nH]c2=O)cc1", "T/C": "93 % of control"}
{"compound": "O=C(Nc1ccc(F)cc1)OCC1CCCO1 (stereo not drawn)", "T/C": "100 % of control"}
{"compound": "Nc1csnn1", "T/C": "96 % of control"}
{"compound": "Nc1ccc2c(c1)[nH]c(=O)c1cc(Br)ccc12", "T/C": "104 % of control"}
{"compound": "[I][Bi]([I])[I]", "T/C": "105 % of control"}
{"compound": "CCCCC(=O)N/N=C/c1cccc(OC)c1OC", "T/C": "92 % of control"}

The recorded T/C for COC(=O)C(CCSC)NC(=O)C(C)NC(=O)c1cnc2ccccc2n1 (stereo not drawn) is 91 % of control

T/C for N#Cc1cnn(CCO)c1N is 103 % of control

Query O=C1C(=O)c2cc(Br)cc([N+](=O)[O-])c2-c2ccc(Br)cc21 yields T/C of 106 % of control

O=C(N/N=C/c1ccc2c(c1)OCO2)C(O)(c1ccccc1)c1ccccc1 yielded T/C of 106 % of control

// T/C value for BrC1CC2C3CCC(C3)C2C1Br (stereo not drawn) : 93 % of control

Documented T/C of COc1cc(OC)c(OCc2ccccc2)c(OC)c1 : 96 % of control

Form field T/C, entry COc1ccccc1CN1CCCN(Cc2ccccc2OC)C1c1c(O)ccc2ccccc12 : 91 % of control

Form: compound = CCCCCCc1cc(N=Nc2ccc(S(=O)(=O)Nc3nccs3)cc2)c(O)cc1O ; T/C = 95 % of control

Input CCN(N=O)c1ccc(/C=C2/C=Cc3ccccc32)cc1 . Output T/C: 95 % of control

T/C measured on Cc1cc(=S)n(C)c2ccccc12 = 89 % of control
